- test target: T1, monkey IGF-1R (on COS-7 cells) (African green monkey)
- T1 construct: whole, on cells
- method notes: FACS titration, Cos-7
Measured EC50 accompanies every entry in the list below.
measure: EC50 (nM)

hz208F2 H068/L018 (antibody, human IgG1, kappa, V domains shown, humanized 208F2 variant) VH: QVQLVQSGAEVKKPGASVKVSCKASGYTFTSYYMHWVRQAPGQGLEWMGWIWPGDGSTKYAQKFQGRVTMTRDTSTNTVYMELSSLRSEDTAVYFCASPMITPNYAMDYWGQGTLVTVSS VL: DIQMTQSPSSLSASVGDRVTITCRASQDISKYLNWYQQKPGKAPKLLIYYTSRLQSGVPSRFSGRGSGTDYSLTISSLQPEDFATYFCQQGSTLPYTFGGGTKVEIKR: 1.2
hz208F2 H037/L021 (antibody, human IgG1, kappa, V domains shown, humanized 208F2 variant) VH: QVQLVQSGAEVKKPGASVKVSCKASGYTFTSYYMHWVRQAPGQGLEWMGWIWPGDGSTKYAQKFQGRVTMTRDKSSSTVYMELSSLRSEDTAVYFCASPMITPNYAMDYWGQGTLVTVSS VL: DIQMTQSPSSLSASVGDRVTITCRASQDISKYLNWYQQKPGKAPKLLIYYTSRLHSGVPSRFSGRGSGTDFSLTISSLQPEDFATYFCQQGSTLPYTFGGGTKVEIKR: 0.82
